# Target System: Steryl-sulfatase (Homo sapiens)
# Sequence (whole entry): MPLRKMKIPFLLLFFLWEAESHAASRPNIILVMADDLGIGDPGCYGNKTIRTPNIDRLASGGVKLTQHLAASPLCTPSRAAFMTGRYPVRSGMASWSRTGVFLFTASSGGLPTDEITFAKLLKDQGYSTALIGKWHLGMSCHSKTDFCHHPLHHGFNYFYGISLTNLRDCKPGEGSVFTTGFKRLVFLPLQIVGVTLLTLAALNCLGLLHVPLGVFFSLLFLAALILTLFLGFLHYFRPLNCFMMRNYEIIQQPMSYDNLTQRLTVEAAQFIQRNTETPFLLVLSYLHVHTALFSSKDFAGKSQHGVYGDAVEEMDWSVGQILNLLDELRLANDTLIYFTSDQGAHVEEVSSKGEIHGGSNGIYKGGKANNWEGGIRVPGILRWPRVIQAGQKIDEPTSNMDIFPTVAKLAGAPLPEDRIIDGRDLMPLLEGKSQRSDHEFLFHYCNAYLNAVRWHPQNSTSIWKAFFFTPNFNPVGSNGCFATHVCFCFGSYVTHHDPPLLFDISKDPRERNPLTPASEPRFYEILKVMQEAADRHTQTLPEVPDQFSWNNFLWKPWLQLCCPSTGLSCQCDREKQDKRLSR
# Assay Details: Inhibition of steroid sulfatase in human JEG3 cell lysates at 10 uM using [3H] E1S as substrate after 1 hr by scintillation spectrometry analysis relative to control
# Format: cell-free
# Study Conditions: JEG-3
Below, each of the compounds is paired with its reported inhibition value.
Property: inhibition (%)

{"Structure Notation": "NS(=O)(=O)Oc1ccc(C(=O)NC23CC4CC(CC(C4)C2)C3)cc1", "Property": "inhibition", "Units Label": "%", "Result": 90}
{"Structure Notation": "CN(C(=O)C12CC3CC(CC(C3)C1)C2)c1ccc(OS(N)(=O)=O)cc1", "Property": "inhibition", "Units Label": "%", "Result": 61}
{"Structure Notation": "NS(=O)(=O)Oc1ccc2c(ccn2C(=O)C2CCCCC2)c1", "Property": "inhibition", "Units Label": "%", "Result": 14.3}
{"Structure Notation": "NS(=O)(=O)Oc1ccc(CNC(=O)C23CC4CC(CC(C4)C2)C3)cc1", "Property": "inhibition", "Units Label": "%", "Result": -5.3}
{"Structure Notation": "NS(=O)(=O)Oc1ccc(C(=O)NC23CC4CC(CC(C4)C2)C3)cc1Br", "Property": "inhibition", "Units Label": "%", "Result": 94.6}
{"Structure Notation": "NS(=O)(=O)Oc1ccc(C(=O)NC23CC4CC(CC(C4)C2)C3)cc1F", "Property": "inhibition", "Units Label": "%", "Result": 97.2}
{"Structure Notation": "NS(=O)(=O)Oc1ccc(NC(=O)NC23CC4CC(CC(C4)C2)C3)cc1", "Property": "inhibition", "Units Label": "%", "Result": 5.32}
{"Structure Notation": "NS(=O)(=O)Oc1ccc(NC(=O)c2ccccc2)cc1", "Property": "inhibition", "Units Label": "%", "Result": 25.4}
{"Structure Notation": "NS(=O)(=O)Oc1ccc(NC(=O)C2CCCC2)cc1", "Property": "inhibition", "Units Label": "%", "Result": 62}
{"Structure Notation": "NS(=O)(=O)Oc1ccc(NC(=O)C23CC4CC(CC(C4)C2)C3)cc1", "Property": "inhibition", "Units Label": "%", "Result": 93.9}
{"Structure Notation": "NS(=O)(=O)Oc1ccc2c(ccn2C(=O)C23CC4CC(CC(C4)C2)C3)c1", "Property": "inhibition", "Units Label": "%", "Result": 63.4}

Provenance of the data: ChEMBL document CHEMBL4616636
